- Test system: wheat (winter wheat)
- EXPERIMENT SUMMARY: Test C pre-/postemergence herbicide test
- Format: in vivo, Triticum aestivum
- REPORTED CONDITIONS: Preemergence, 62 g ai/ha; scale 0 to 100
Give measured Plant response rating, Wheat for each item. Keep answers brief.
Give the figure only, with no unit attached.

Tell me the measured Plant response rating, Wheat of O=C1NCC(c2cc(F)c(F)c(F)c2)C1C(=O)Nc1ccccc1F (racemic) [Compound 34] , please.
0

Tell me the measured Plant response rating, Wheat of O=C1NCC(c2cccc(OC(F)(F)F)c2)C1C(=O)Nc1cccc(F)c1F (stereo not shown) [Compound 68] , please.
5

Tell me the measured Plant response rating, Wheat of O=C1NCC(c2ccc(Cl)c(F)c2)C1C(=O)Nc1ccccc1F (stereo not shown) [Compound 53] , please.
0

Tell me the measured Plant response rating, Wheat of O=C1NCC(c2ccc(F)c(C(F)(F)F)c2)C1C(=O)Nc1ccccc1C(F)(F)F (racemic) [Compound 78] , please.
30

* * *

- Tested on: barnyardgrass
- EXPERIMENT SUMMARY: Test A pre-/postemergence herbicide test
- Type: in vivo, Echinochloa crus-galli
- REPORTED CONDITIONS: preemergence; 500 g ai/ha; 0 to 100 scale, 0 is no effect and 100 is complete control
MEASURED PARAMETER: Plant response rating, Barnyardgrass

Tell me the measured Plant response rating, Barnyardgrass of O=C1NCC(c2ccc(C(F)(F)F)nc2)C1C(=O)Nc1ccccc1F (racemic) , please.
90

Tell me the measured Plant response rating, Barnyardgrass of O=C1NCC(c2cccc(C(F)(F)F)c2)C1C(=O)Nc1cccc(F)c1F (stereo not shown) , please.
90

Tell me the measured Plant response rating, Barnyardgrass of O=C1NCC(c2cc3ccccc3o2)C1C(=O)Nc1ccccc1F (racemic) , please.
70

Tell me the measured Plant response rating, Barnyardgrass of O=C1NCC(c2ccc(C(F)(F)F)nc2)C1C(=O)Nc1cccc(F)c1F (racemic) , please.
90

Tell me the measured Plant response rating, Barnyardgrass of O=C1NCC(c2cc(F)cc(F)c2)C1C(=O)Nc1cccc(F)c1F (racemic) , please.
90

Tell me the measured Plant response rating, Barnyardgrass of O=C1NCC(c2ccc(Cl)s2)C1C(=O)Nc1ccccc1C(F)(F)F (stereo not shown) , please.
70

Tell me the measured Plant response rating, Barnyardgrass of O=C1NCC(c2ccc(OC(F)F)cc2)C1C(=O)Nc1ccccc1Cl (stereo not shown) , please.
90

Tell me the measured Plant response rating, Barnyardgrass of Cc1cc(NC(=O)C2C(=O)NCC2c2cccc(C(F)(F)F)c2)ccc1F (racemic) , please.
70

Tell me the measured Plant response rating, Barnyardgrass of O=C1NCC(c2ccc(Cl)cc2)C1C(=O)Nc1ccccc1Cl (stereo not shown) , please.
80

Tell me the measured Plant response rating, Barnyardgrass of COc1ccc(C2CNC(=O)C2C(=O)Nc2ccccc2C(F)(F)F)cc1C(F)(F)F (stereo not shown) , please.
50

Tell me the measured Plant response rating, Barnyardgrass of O=C1NCC(c2cc3ccccc3s2)C1C(=O)Nc1cccc(F)c1F (stereo not shown) , please.
0

Tell me the measured Plant response rating, Barnyardgrass of O=C1NCC(c2ccc(C(F)(F)F)cc2)C1C(=O)Nc1ccc(F)c(F)c1F (stereo not shown) , please.
90

Tell me the measured Plant response rating, Barnyardgrass of O=C1NCC(c2cccc(OC(F)F)c2)C1C(=O)Nc1ccccc1F (stereo not shown) , please.
90

Tell me the measured Plant response rating, Barnyardgrass of O=C1NCC(c2cccc(C(F)(F)F)c2)C1C(=O)Nc1ccc(F)cc1F (racemic) , please.
90

Tell me the measured Plant response rating, Barnyardgrass of O=C1NCC(c2ccc(C(F)(F)F)c(F)c2)C1C(=O)Nc1ccccc1F (racemic) , please.
90

Tell me the measured Plant response rating, Barnyardgrass of O=C1NCC(c2ccc(Cl)cc2)C1C(=O)Nc1ccccc1C(F)(F)F (stereo not shown) , please.
60
